# Tested on: Escherichia coli Nissle 1917
# Method: DuctApe activity index of respiration/growth curve (0 no growth to 9 maximum) (index 0-9); higher = more growth / nutrient utilisation, active = 3 or more; extreme values may be limits of the assay
# Conditions Used: nutrient role: C-Source, carbohydrate; incubation: 48 h, 37 °C
Assign a class; possible classes are Y = active, N = inactive

Query :: Given OC1OC[C@@H](O)[C@@H](O)[C@@H]1O (stereo partly drawn) [D-Arabinose] , state the outcome it received in this test.
Result :: Y

More entries:
Query :: Given C[C@@H](O)[C@H](O)[C@H](O)[C@@H](O)C=O [D-Fucose] , state the outcome it received in this test.
Result :: N

Query :: Given CC1OC(O)C(O)C(O)C1O [L-Fucose] , state the outcome it received in this test.
Result :: Y

Query :: Given N[C@H]1C(O)O[C@H](CO)[C@@H](O)[C@@H]1O (stereo partly drawn) [D-Glucosamine] , state the outcome it received in this test.
Result :: Y

Query :: Given OC[C@H]1O[C@@H](O[C@@H]2[C@@H](CO)OC(O)(CO)[C@H]2O)[C@H](O)[C@@H](O)[C@H]1O (mixture of isomers) [Lactulose] , state the outcome it received in this test.
Result :: Y

Query :: Given OCC1OC(OC2C(CO)OC(O)C(O)C2O)C(O)C(O)C1O [D-Cellobiose] , state the outcome it received in this test.
Result :: N

---

# System: Escherichia coli Nissle 1917
# Method: area under OmniLog respiration curve over 48 h (OmniLog units x h); higher = more growth / nutrient utilisation; extreme values may be limits of the assay
# Conditions Used: nutrient role: sole nitrogen source (pyruvate carbon); incubation: 48 h, 37 °C
A collection of compounds and their measured area under OmniLog respiration curve
I only need the number, thanks.

Solved entries:
Query :: Field request: area under OmniLog respiration curve | item: "NC(=O)NC(N)=O"
Result :: 3650

Query :: Field request: area under OmniLog respiration curve | item: "O=C1CC[C@@H](C(=O)O)N1"
Result :: 4.72

Query :: Field request: area under OmniLog respiration curve | item: "NCC(=O)N[C@@H](CCC(=O)O)C(=O)O"
Result :: 7640

More entries:
Query :: Field request: area under OmniLog respiration curve | item: CC(N)=O [Acetamide]
Result :: 26.4

Query :: Field request: area under OmniLog respiration curve | item: N[C@H]1C(O)O[C@H](CO)[C@H](O)[C@@H]1O (stereo partly specified)
Result :: 11.2

Query :: Field request: area under OmniLog respiration curve | item: "Cc1c[nH]c(=O)[nH]c1=O"
Result :: 67

Query :: Field request: area under OmniLog respiration curve | item: "NCCN"
Result :: 4.72

Query :: Field request: area under OmniLog respiration curve | item: NC(=O)[C@H]1O[C@@H](O)[C@H](O)[C@@H](O)[C@@H]1O [Glucuronamide]
Result :: 2520

Query :: Field request: area under OmniLog respiration curve | item: "CC(=O)N[C@@H]1[C@@H](O)[C@H](O)[C@@H](CO)O[C@@H]1O"
Result :: 1070

Query :: Field request: area under OmniLog respiration curve | item: "N[C@@H](Cc1c[nH]c2ccccc12)C(=O)O"
Result :: 3670

Query :: Field request: area under OmniLog respiration curve | item: "CSCC[C@H](N)C(=O)N[C@@H](C)C(=O)O"
Result :: 6410

Query :: Field request: area under OmniLog respiration curve | item: NC(=O)NC1NC(=O)NC1=O (stereo unspecified)
Result :: 500

Query :: Field request: area under OmniLog respiration curve | item: "N=C(N)NCCC[C@H](N)C(=O)O"
Result :: 7500

Query :: Field request: area under OmniLog respiration curve | item: "CC[C@H](C)[C@H](N)C(=O)O"
Result :: 64.6

Query :: Field request: area under OmniLog respiration curve | item: "C[C@H](N)C(=O)N[C@@H](CC(=O)O)C(=O)O"
Result :: 9150

Query :: Field request: area under OmniLog respiration curve | item: "Nc1nc2[nH]cnc2c(=O)[nH]1"
Result :: 27.5

Query :: Field request: area under OmniLog respiration curve | item: "OC[C@H]1O[C@@H](n2cnc3c(O)nc(O)nc32)[C@H](O)[C@@H]1O"
Result :: 2070

Query :: Field request: area under OmniLog respiration curve | item: "NCCCC[C@@H](N)C(=O)O"
Result :: 23.1

Query :: Field request: area under OmniLog respiration curve | item: "N[C@@H](CC(=O)O)C(=O)O"
Result :: 8720
